# Tested on: NCI-H460 lung
# protocol: NCI-60 one-dose screen, 48 h (100 = growth as untreated, 0 = no growth, -100 = all killed)
# assayConditions: 10 µM unless noted
# Method: Growth inhibition of the NCI-H460 human Non-Small Cell Lung tumor cell line is measured as a screen for anti-cancer activity. Cells are grown in 96 well plates and exposed to the test compound for 48 hours. Compounds are tested at a single concentration, which is 10^-5 M for most compounds. The reported endpoint is percent growth (GI% or GIPRCNT), where numbers from 0 - 100% represent growth inhibition, and numbers from -100% - 0 represent cell death. […]
About 83,000 compounds went through this panel and 20% of them were active in at least one assay; those are over-represented in the sample as a whole.
Classification field: enter Y for growth values not below 90%, N for values below it.

{"structure": "CC[C@]12C=CCN3CC[C@@]4(c5ccc(OC)cc5N(C)[C@H]4[C@@](O)(C(=O)OC)[C@@H]1OC(=O)CCN1CCc4ccccc4C1)[C@@H]32", "groupLabel": "Y"}
{"structure": "COc1ccc(/C=N/NC(=O)CSc2nc(-c3cnccn3)cc(-c3cccs3)c2C#N)cc1", "groupLabel": "N"}
{"structure": "Cc1cc(=O)[nH]c(O)c1C#N", "groupLabel": "Y"}
{"structure": "Cc1ccc(S(=O)(=O)c2nc(-c3ccc(F)cc3)oc2S(C)(=O)=O)cc1", "groupLabel": "Y"}

---

Measured growth values are reported for all entries that follow.
# Test system: NCI-H23 lung
# protocol: NCI-60 one-dose screen, 48 h (100 = growth as untreated, 0 = no growth, -100 = all killed)
# assayConditions: 10 µM unless noted
This is part of a sample that, as a whole, favours compounds with a hit. Of some 83,000 tested, about 20% had one in any assay.
measureName: growth (%)

{"compound": "Cc1cc(NS(=O)(=O)c2ccc(NC(=O)CSc3nc4ccccc4c(=O)n3-c3ccccc3)cc2)no1", "measureName": "growth", "reportedResult": 92.2}
{"compound": "COc1cccc2c1[C@H](OC)[C@]13O[C@@]1(C2=O)[C@H](O)[C@H](C)[C@@](O)(C(=O)[C@@H]1O[C@H]1C)[C@@H]3O", "measureName": "growth", "reportedResult": -63.9}
{"compound": "COc1ccc2c(c1)C=CC1(O2)Oc2ccc(OC)cc2C=C1C (centres undefined)", "measureName": "growth", "reportedResult": 39.7}
{"compound": "COC(=O)CCSC1=C(C)C(=O)c2ccccc2C1=O", "measureName": "growth", "reportedResult": 71.3}
{"compound": "COc1ccc2c(c1)c(-c1nn3cc(-c4ccncc4)nc3s1)cn2C", "measureName": "growth", "reportedResult": 88.7}
{"compound": "COc1ccc(-c2c(C(N)=O)c(N)n(Cc3nc4ccccc4[nH]3)c(=O)c2C#N)c(OC)c1", "measureName": "growth", "reportedResult": 93.1}
{"compound": "O=C(CCCCCCNC(=O)C(O)(O)C(F)(F)F)Nc1ccc(Cl)cc1", "measureName": "growth", "reportedResult": 24.3}
{"compound": "O=C(/C=C/c1cccc(F)c1)c1cccc(OCCCOc2cccc(C(=O)/C=C/c3cccc(F)c3)c2)c1", "measureName": "growth", "reportedResult": 49.2}
{"compound": "O=C(/C=C/Nc1ccc(S(=O)(=O)Nc2ncccn2)cc1)c1ccc(N=Cc2c(O)[nH]c3ccccc23)cc1", "measureName": "growth", "reportedResult": 96.5}
